# system.name: T1, bacterially produced human IL-6 (human, UniProt P05231 30-212)
# T1 construct: also called bactIL-6; prokaryotic IL-6
# measurement.notes: SPR; periplasmic fraction
parameter.measured: Ka (M⁻¹)
Give the value, in units of M⁻¹, as a plain number.

binder: Fab 55H1 (Fab, V domains shown, VL-shuffled Fab of 29B11, periplasmic fraction; also called 55H1c) VH: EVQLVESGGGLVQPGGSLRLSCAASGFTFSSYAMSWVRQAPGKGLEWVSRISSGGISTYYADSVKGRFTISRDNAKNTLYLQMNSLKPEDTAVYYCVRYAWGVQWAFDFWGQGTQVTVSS VL: AQSVVTQPPSVSGSPGKTVTISCAGTSSDVGYGNYVSWYQQLPGMAPKLLIYDVSKRASGIADRFSGSKSGNTASLTISGLQSEDEADYVCASYRRGGTAVFGGGTHLTVLG
reported.measurement: 1e+10

**Query** What value of Ka has been reported for the following binder? Fab 48C10 (Fab, V domains shown, VL-shuffled Fab of 29B11, periplasmic fraction) VH: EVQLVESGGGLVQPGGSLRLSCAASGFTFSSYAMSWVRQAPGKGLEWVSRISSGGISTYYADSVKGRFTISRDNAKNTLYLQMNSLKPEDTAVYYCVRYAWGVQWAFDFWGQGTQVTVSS VL: AQSVLTQPPSVSGSPGQTVTISCAGTSEDVGYGNYVSWYQQLPGMAPKLLIYDVNKRASGIADRFSGSKSGNTASLTISGLQSEDEADYYCASYRRTIDNIFGGGTHLTVLG
**Result** 1.43e+09

**Query** What value of Ka has been reported for the following binder? Fab 55E2 (Fab, V domains shown, VL-shuffled Fab of 29B11, periplasmic fraction; also called 55E2b) VH: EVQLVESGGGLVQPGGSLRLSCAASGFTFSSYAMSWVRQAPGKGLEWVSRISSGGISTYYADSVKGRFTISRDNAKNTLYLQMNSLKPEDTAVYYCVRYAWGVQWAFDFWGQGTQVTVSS VL: AQSVLTQPPSVSGSPGKTVTISCAGTSSDVGYGNYVSWYQQLPGMAPKLLIYDVNKRASGIADRFSGSKFANTASLTISGLQSEDEADYYCASYKRGDNAVFGGGTKLTVLG
**Result** 7.28e+09
